# measured-target: T1, human melanocortin 4 receptor (human, UniProt P32245 1-332)
# T1 construct: whole, on cells; cAMP assay on whole BHK cells; also called MC4R; human MC4 receptor
# T1 sequence (P32245 whole entry): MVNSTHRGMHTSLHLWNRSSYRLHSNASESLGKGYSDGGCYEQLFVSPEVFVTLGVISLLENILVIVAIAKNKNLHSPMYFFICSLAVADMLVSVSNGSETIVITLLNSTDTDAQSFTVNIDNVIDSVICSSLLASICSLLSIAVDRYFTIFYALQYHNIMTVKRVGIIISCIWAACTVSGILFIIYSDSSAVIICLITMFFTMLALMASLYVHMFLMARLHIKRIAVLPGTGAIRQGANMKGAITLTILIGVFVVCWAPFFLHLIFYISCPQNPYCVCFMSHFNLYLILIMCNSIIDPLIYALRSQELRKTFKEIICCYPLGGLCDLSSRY
# assay-name: competition with 125-NDP-α-MSH, BHK human MC4R membranes
Positions of bridges follow the written chain, without caps; N, C: chain ends. Non-standard residues stand in square brackets, D forms with d. 1Nal = N[C@@H](Cc1cccc2ccccc12)C(=O)O; Cit = NC(=O)NCCC[C@H](N)C(=O)O
Measured Ki, listed per entry.
The answer is to be given in pM; state only the numeric part.

[in] I have this binder here, cyclo(CAH[dF]R[1Nal]CAKKKW) (disulfide 1-7; SMILES C[C@@H]1NC(=O)[C@@H]2CSSC[C@H](NC(=O)[C@H](Cc3cccc4ccccc34)NC(=O)[C@H](CCCNC(=N)N)NC(=O)[C@@H](Cc3ccccc3)NC(=O)[C@H](Cc3c[nH]cn3)NC1=O)C(=O)N[C@@H](C)C(=O)N[C@@H](CCCCN)C(=O)N[C@@H](CCCCN)C(=O)N[C@@H](CCCCN)C(=O)N[C@@H](Cc1c[nH]c3ccccc13)C(=O)N2, also called c[c[Cys-Ala-His-D-Phe-Arg-1-Nal-Cys]-Ala-Lys-Lys-Lys-Trp]) [Chem. 64] , and I need its recorded Ki.
[out] 90

[in] I have this binder here, cyclo(CPH[dF][Cit]WCAKKKR) (disulfide 1-7; SMILES C[C@@H]1NC(=O)[C@@H]2CSSC[C@H](NC(=O)[C@H](CCCNC(=N)N)NC(=O)[C@H](CCCCN)NC(=O)[C@H](CCCCN)NC(=O)[C@H](CCCCN)NC1=O)C(=O)N1CCC[C@H]1C(=O)N[C@@H](Cc1c[nH]cn1)C(=O)N[C@H](Cc1ccccc1)C(=O)N[C@@H](CCCNC(N)=O)C(=O)N[C@@H](Cc1c[nH]c3ccccc13)C(=O)N2, Printed shorthand is identical to that of Chem. 99; the drawings may differ; also called c[c[Cys-Pro-His-D-Phe-Cit-Trp-Cys]-Ala-Lys-Lys-Lys-Arg]) [Chem. 72] , and I need its recorded Ki.
[out] 30
